# Tested on: SKVLB (Ovarian; multidrug resistant)
# Assay remarks: In vitro cytotoxicity, microculture tetrazolium (MTT) assay, SKVLB
# Type: cell-based, Human
# Experimental context: Homo sapiens; SKVLB multidrug resistant ovarian; 48 h with compound, further 48 h, MTT; Table 1
Exercise: for every item that follows, state its recorded IC50.
State just the number; it will be interpreted in nM.

Q: // IC50 lookup, key: C[C@@H]1O[C@@H](OC2OC(C#N)CC3=C2C(=O)c2ccccc2C3=O)C[C@H](NC(=O)C(F)(F)F)[C@@H]1O (mixture of isomers)
Result: 2770

Q: Fill in the blank: the reported IC50 of `CC(=O)[C@H]1CC2=C(C(=O)c3ccccc3C2=O)[C@H](O[C@H]2C[C@H](NC(=O)C(F)(F)F)[C@H](Br)[C@H](C)O2)O1` is ____.
Result: 523

Q: Value lookup for IC50; key = `CC(C)OC(=O)[C@@H]1CC2=C(C(=O)c3ccccc3C2=O)[C@@H](O[C@H]2C[C@H](NC(=O)C(F)(F)F)[C@H](O)[C@H](C)O2)O1`
Result: 2000

Q: Any idea what IC50 was measured for `COC(=O)[C@]1(C)CC2=C(C(=O)c3ccccc3C2=O)[C@@H](O[C@H]2C[C@H](NC(=O)C(F)(F)F)[C@H](O)[C@H](C)O2)O1` ?
Result: 21000
